tested on: HL-60; experiment: NCI tumour cell line growth inhibition, 48 h
Active and inactive are the calls of the source. No stated cut-off is given here; in the data, active = GI50 up to about 1.1 µM and inactive = higher.
Quantity kind: GI50

> print(dat)
                                   compound  experimental.target       endpoint.value
1  C[N+](C)(C)CC(=O)N/N=C(\C(=O)NC1=C(Cl)C(=O)c2ccccc2C1=O)C(C#N)c1nc(-c2ccc([N+](=O)[O-])cc2)cs1 (stereo not given)                HL-60   5.73 µM (inactive)
2  CN(C)c1nc(N(C)C)nc(N(C)CN(C)c2nc(N(C)C)nc(N(C)C)n2)n1                HL-60  > 100 µM (inactive)
3  CN(C)CCNC(=O)c1cc(NC(=O)c2cc(NC(=O)CC/C=C3/[C@@H]4CC[C@H]3N=N4)cn2C)cn1C                HL-60  > 100 µM (inactive)
4   COc1ccc(-c2cc(-c3cc(C)cc(Br)c3O)no2)cc1                HL-60   47.9 µM (inactive)
5  CC(C)(C)OC(=O)N1CCc2c(n(C/C=C/c3ccccc3)[nH]c2=O)C1                HL-60   27.8 µM (inactive)

### Prompt Data request, read-out GI50, for `Clc1nc(Cl)c(Cc2ccccc2)c(Cl)n1`
### Response 7.45 µM (inactive)

### Prompt Data request, read-out GI50, for `O=C1CCCNn2c(nc3ncccc3c2=O)N1`
### Response > 100 µM (inactive)

### Prompt Data request, read-out GI50, for O=C1O[B-](c2ccccc2)(c2ccccc2)[NH2+]C1CS (stereo not given)
### Response 23.9 µM (inactive)

### Prompt Data request, read-out GI50, for `CC(C)OC(=O)NNc1cc(Cl)ccc1Cl`
### Response 21.7 µM (inactive)

### Prompt Data request, read-out GI50, for O=C(O)c1ccc(C2SCc3nc4ccccc4n32)cc1 (stereo not given)
### Response > 100 µM (inactive)
